# Test system: blackgrass (Alopecurus myosuroides)
# test.method.notes: Test A preemergence soil spray, visual injury rating 0-100
# Assay type: in vivo
# cond: 31 g ai/ha, 10 days, 0 = no effect, 100 = complete control
Kindly supply the reported Blackgrass plant response rating (0-100) values for the records listed here.
Lab note: jot down the number only; don't add units.

Give reported Blackgrass plant response rating (0-100) value for CC(C)OC(=O)C1=CCC(NC(=O)C2(C)CN(c3cc(Cl)cc(Cl)c3)C(=O)O2)C1 (stereo not drawn) [Compound 70]
10

Give reported Blackgrass plant response rating (0-100) value for CC1(C(=O)NC2CC=C(C(=O)O)C2)CN(c2cc(F)cc(F)c2)C(=O)O1 (stereo not drawn) [Compound 38]
0

Give reported Blackgrass plant response rating (0-100) value for CCOC(=O)C1CCC(NC(=O)C2(C)CN(c3cc(F)cc(F)c3)C(=O)O2)C1 (stereo not drawn) [Compound 11]
20

* * *

# Tested on: ragweed (common ragweed, Ambrosia artemisiifolia)
# test.method.notes: Test A preemergence soil spray, visual injury rating 0-100
# Type: in vivo
# cond: 31 g ai/ha, 10 days, 0 = no effect, 100 = complete control
# Description: […]
parameter: Ragweed plant response rating (0-100)
Lab note: jot down the number only; don't add units.

Provide Ragweed plant response rating (0-100), recorded with ragweed (common ragweed, Ambrosia artemisiifolia), of CC1(C(=O)NC2C=CC(C(=O)OCC(F)(F)F)C2)CN(c2cc(Cl)cc(Cl)c2)C(=O)O1 (stereo not shown)
0

Provide Ragweed plant response rating (0-100), recorded with ragweed (common ragweed, Ambrosia artemisiifolia), of CC1(C(=O)NC2C=CC(C(=O)OC3CCCC3)C2)CN(c2cc(Cl)cc(Cl)c2)C(=O)O1 (stereo not shown)
30

Provide Ragweed plant response rating (0-100), recorded with ragweed (common ragweed, Ambrosia artemisiifolia), of COC(=O)C1CCC(NC(=O)C2(C)CN(c3cc(F)cc(F)c3)C(=O)O2)C1 (stereo not shown)
0

Provide Ragweed plant response rating (0-100), recorded with ragweed (common ragweed, Ambrosia artemisiifolia), of CC1(C(=O)NC2C=CC(C(=O)ON=Cc3ccccc3)C2)CN(c2cc(F)cc(F)c2)C(=O)O1 (stereo not shown)
0

* * *

Kindly supply the reported Barnyardgrass plant response rating (0-100) values for the records listed here.
# Test system: barnyardgrass (Echinochloa crus-galli)
# test.method.notes: Test A preemergence soil spray, visual injury rating 0-100
# Assay type: in vivo
# cond: 62 g ai/ha, 10 days, 0 = no effect, 100 = complete control

Give reported Barnyardgrass plant response rating (0-100) value for CC(C)OC(=O)C1=CCC(NC(=O)C2(C)CN(c3cc(F)cc(F)c3)C(=O)O2)C1 (centres unmarked)
0

Give reported Barnyardgrass plant response rating (0-100) value for CSCCOC(=O)C1CC(NC(=O)C2(C)CN(c3cc(F)cc(F)c3)C(=O)O2)C1 (racemic)
60

Give reported Barnyardgrass plant response rating (0-100) value for CC(C)COC(=O)C1=CCC(NC(=O)C2(C)CN(c3cc(F)cc(F)c3)C(=O)O2)C1 (centres unmarked)
90

Give reported Barnyardgrass plant response rating (0-100) value for CC(C)COC(=O)C1=CCC(NC(=O)C2(C)CN(c3cc(F)cc(Cl)c3)C(=O)O2)C1 (centres unmarked)
0

Give reported Barnyardgrass plant response rating (0-100) value for CC(C)OC(=O)C1=CCC(NC(=O)C2(C)CN(c3cc(Cl)cc(Cl)c3)C(=O)O2)C1 (centres unmarked) [Compound 105]
0

* * *

# Tested on: blackgrass (Alopecurus myosuroides)
# test.method.notes: Test A preemergence soil spray, visual injury rating 0-100
# Assay type: in vivo
# cond: 16 g ai/ha, 0 to 100 scale, 10 days
parameter: Blackgrass plant response rating
Lab note: jot down the number only; don't add units.

Give reported Blackgrass plant response rating value for COC(=O)C1C=CC(NC(=O)C2(C)CN(c3cc(C)cc(C)c3)C(=O)O2)C1 (stereo not shown) [Compound 115]
20

Give reported Blackgrass plant response rating value for CC1(C(=O)NC2CC=C(C(=O)NS(C)(=O)=O)C2)CN(c2cc(F)cc(F)c2)C(=O)O1 (racemic) [Compound 103]
0

Give reported Blackgrass plant response rating value for CC1(C(=O)NC2C=CC(C(=O)O)C2)CN(c2cc(Cl)c(F)c(Cl)c2)C(=O)O1 (stereo not shown) [Compound 124]
20

Give reported Blackgrass plant response rating value for C=CC1(C(=O)NC2C=CC(C(=O)OC)C2)CN(c2cc(F)cc(F)c2)C(=O)O1 (single isomer, unassigned) [Compound 167]
30

Give reported Blackgrass plant response rating value for C=CC1(C(=O)NC2CC(C(=O)OC)C2)CN(c2cc(F)cc(F)c2)C(=O)O1 (stereo not shown) [Compound 172]
50

Give reported Blackgrass plant response rating value for COC(=O)C1C=CC(NC(=O)C2(C(F)(F)F)CN(c3cc(F)c(F)c(F)c3)C(=O)O2)C1 (mixture of isomers) [Compound 162]
0

Give reported Blackgrass plant response rating value for CC1(C(=O)NC2C=CC(C(=O)O)C2)CN(c2cc(F)cc(F)c2)C(=O)O1 (stereo not shown) [Compound 131]
30

Give reported Blackgrass plant response rating value for CC1(C(=O)NC2CC=C(C(=O)O)C2)CN(c2cc(F)cc(F)c2)C(=O)O1 (stereo not shown) [Compound 94]
30

Give reported Blackgrass plant response rating value for CCOC(=O)C1C=CC(NC(=O)C2(C)CN(c3cccc(OC(F)(F)F)c3)C(=O)O2)C1 (stereo not shown) [Compound 102]
0

Give reported Blackgrass plant response rating value for CC(C)COC(=O)C1=CCC(NC(=O)C2(C)CN(c3cc(Cl)cc(Cl)c3)C(=O)O2)C1 (stereo not shown) [Compound 155]
0

* * *

# System: ragweed (common ragweed, Ambrosia artemisiifolia)
# test.method.notes: Test A preemergence soil spray, visual injury rating 0-100
# Assay type: in vivo
# cond: 31 g ai/ha, 10 days, 0 = no effect, 100 = complete control
parameter: Ragweed plant response rating (0-100)

Give reported Ragweed plant response rating (0-100) value for CC1(C(=O)NC2CC=C(C(=O)O)C2)CN(c2cc(Cl)cc(Cl)c2)C(=O)O1 (centres unmarked) [Compound 72]
0

Give reported Ragweed plant response rating (0-100) value for COC(=O)COC(=O)C1C=CC(NC(=O)C2(C)CN(c3cc(Cl)cc(Cl)c3)C(=O)O2)C1 (centres unmarked) [Compound 65]
10

Give reported Ragweed plant response rating (0-100) value for CC(C)OC(=O)C1CCC(NC(=O)C2(C)CN(c3cc(F)cc(F)c3)C(=O)O2)C1 (centres unmarked) [Compound 12]
0

Give reported Ragweed plant response rating (0-100) value for CC1(C(=O)NC2CC=C(C(=O)NS(=O)(=O)C3CC3)C2)CN(c2cc(Cl)cc(Cl)c2)C(=O)O1 (centres unmarked) [Compound 75]
10

Give reported Ragweed plant response rating (0-100) value for COC(=O)C1=CCC(NC(=O)C2(C)CN(c3cc(F)cc(F)c3)C(=O)O2)C1 (single isomer, unassigned) [Compound 20]
30

* * *

Kindly supply the reported Soybean plant response rating (0 to 100 scale) values for the records listed here.
# Tested on: soybean (Glycine max)
# test.method.notes: Test A postemergence application, visual injury rating 0-100
# Assay type: in vivo
# cond: Postemergence, 125 g ai/ha, 10 days; 0 is no effect, 100 is complete control
Lab note: jot down the number only; don't add units.

Give reported Soybean plant response rating (0 to 100 scale) value for CCOC(=O)C1CCC(NC(=O)C2(C)CN(c3cc(F)cc(F)c3)C(=O)O2)C1 (centres unmarked)
60

Give reported Soybean plant response rating (0 to 100 scale) value for CCOC(=O)C1=CCC(NC(=O)C2(C)CN(c3cc(Cl)cc(Cl)c3)C(=O)O2)C1 (centres unmarked)
100

Give reported Soybean plant response rating (0 to 100 scale) value for CC(C)COC(=O)C1=CCC(NC(=O)C2(C)CN(c3cc(F)cc(F)c3)C(=O)O2)C1 (centres unmarked)
60

Give reported Soybean plant response rating (0 to 100 scale) value for CC1(C(=O)NC2C=CC(C(=O)NS(=O)(=O)C3CC3)C2)CN(c2cc(Cl)cc(Cl)c2)C(=O)O1 (centres unmarked)
60

Give reported Soybean plant response rating (0 to 100 scale) value for CC1(C(=O)NC2C=CC(C(=O)NS(=O)(=O)c3ccccc3)C2)CN(c2cc(Cl)cc(Cl)c2)C(=O)O1 (centres unmarked)
60

Give reported Soybean plant response rating (0 to 100 scale) value for CC(=O)COC(=O)C1C=CC(NC(=O)C2(C)CN(c3cc(Cl)cc(Cl)c3)C(=O)O2)C1 (centres unmarked)
80

Give reported Soybean plant response rating (0 to 100 scale) value for CCOC(=O)C1CC(NC(=O)C2(C)CN(c3cc(F)cc(F)c3)C(=O)O2)CO1 (centres unmarked)
60

Give reported Soybean plant response rating (0 to 100 scale) value for CCS(=O)(=O)NC(=O)C1C=CC(NC(=O)C2(C)CN(c3cc(F)cc(F)c3)C(=O)O2)C1 (centres unmarked)
50
